# IC50 values compiled below
test system: NALM-6; test: cells; type: functional, cell-based; conditions: Homo sapiens;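 further: growth inhibition of NALM-6 cells, read out with a cell viability assay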
Description: SANGER: Inhibition of human NALM-6 cell growth in a cell viability assay.

| molecule | IC50 |
| --- | --- |
| C=C1C(=O)O[C@@H]2C3O[C@]3(C)CC/C=C(\C)CC[C@@H]12 (stereo partly drawn) | > 5000 nM |
| C[C@]1(O)C[C@@H](c2nc(-c3ccc4ccc(-c5ccccc5)nc4c3)c3c(N)nccn32)C1 | > 2560 nM |
| Cc1cnc(-c2cnc(NCCNc3ccc(C#N)cn3)nc2-c2ccc(Cl)cc2Cl)[nH]1 | > 2560 nM |

---

tested on: CGTH-W-1; test: cells; format: functional, cell-based, Homo sapiens; settings: Homo sapiens, CGTH-W-1;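 further: growth inhibition of human CGTH-W-1 cells measured by cell viability assay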
Description: SANGER: Inhibition of human CGTH-W-1 cell growth in a cell viability assay.
We begin with a simple list: items and their reported IC50.
readout.name: IC50

| compound | assayed.system | val |
| --- | --- | --- |
| CCOc1nc(NC(=O)Cc2cc(OC)ccc2OC)cc(N)c1C#N | CGTH-W-1 | > 10 µM |
| C=CCc1cccc(/C=N/NC(=O)CN2CCN(Cc3ccccc3)CC2)c1O | CGTH-W-1 | > 2.56 µM |
| CC1=C2C[C@H]3[C@@H](CC=C4C[C@@H](O)CC[C@@]43C)[C@@H]2CC[C@]12O[C@@H]1C[C@H](C)CN[C@H]1[C@H]2C | CGTH-W-1 | > 16 µM |
| CO[C@H]1C[C@@H]2CC[C@@H](C)[C@@](O)(O2)C(=O)C(=O)N2CCCC[C@H]2C(=O)O[C@H]([C@H](C)C[C@@H]2CC[C@@H](O)[C@H](OC)C2)CC(=O)[C@H](C)/C=C(\C)[C@@H](O)[C@@H](OC)C(=O)[C@H](C)C[C@H](C)/C=C/C=C/C=C/1C | CGTH-W-1 | > 0.1 µM |
